Reported inhibition by item:
biological target: SARS-CoV-2 Main Protease (SARS-CoV-2); conditions: 50.0 µM
Property label: inhibition (%)

In [3]: df
Out[3]:
                                   compound  property_label  reported_measurement
0                N#Cc1cccc(CNc2ccc(O)cc2)c1      inhibition                  22.7
1    CC(=O)/C(C#N)=C(\O)Nc1ccc(C(F)(F)F)cc1      inhibition                  22.2
2  O=C(Nc1cccc(-c2cc[nH]n2)c1)C(O)c1cccnc1 (configuration not stated)      inhibition                     0
3  COc1ccc(CN2C(=O)C(=O)c3cc(Br)cc(C)c32)cc1OC      inhibition                  99.3
4  CC(C)(C)NC(=O)CN1C(=O)C(=O)c2cccc(Br)c21      inhibition                     0
5  CC(C)c1ncncc1NC(=O)C(C)c1cccc(Cl)c1 (configuration not stated)      inhibition                   1.6
6  C=CC(=O)N(c1ccc(C(C)(C)C)cc1)C(C(=O)NC(C)(C)C)c1cncc(OC)c1 (configuration not stated)      inhibition                  8.47

###

target: SARS-CoV-2 Main Protease (SARS-CoV-2) (UniProt P0DTD1); conditions: 50.0 µM
Measured inhibition, listed per entry for reference.
Property label: inhibition (%)

>>> df
                                   molecule  reported_measurement
0            Cc1cc(Cl)cc(NC(=O)Nc2cccnc2)c1                  35.4
1  CC(=O)N1CCN(Cc2cn(-c3cccc(S(N)(=O)=O)c3)nn2)CC1                  5.73
2  Cc1ccn(CC(=O)NCc2nccn2CCc2ccccc2)c(=O)c1                     0
3  O=C(NCc1cnccn1)c1sc2cccc(F)c2c1COc1ccccc1                -0.855
4  CCN1CCN(Cc2ccccc2CNC2=NC[C@@H](C3CCCC3)N2)CC1 (stereo in doubt)                 -30.8

###

molecular target: UniProt:P0DTD1; details: 50.0 µM
Listed compounds paired with reported inhibition
Property label: inhibition (%)

>>> print(df.to_string())
                                   compound  property_label  reported_measurement
0  CC(C)c1scnc1NC(=O)C1CCOc2ccc(Cl)cc21 (centres undefined)      inhibition                  6.85
1  CC(C)Cn1cc(NC(=O)NCCc2ccc(Cl)cc2)c2ccccc2c1=O      inhibition                 -1.58
2  Cn1cc(NC(=O)NCCCN2CCc3ccccc3C2)c2ccccc2c1=O      inhibition                  1.39
3              Cc1ncccc1NC(=O)Cc1cccc(Cl)c1      inhibition                  -3.9

###

biological target: SARS-CoV-2 Main Protease (SARS-CoV-2); details: 20.0 µM
In this section we review reported inhibition values for a set of compounds.
Property label: inhibition (%)

                                   compound  reported_measurement
0  COc1ccc(Cl)cc1N1CCN(Cc2cc(=O)[nH]c3ccccc23)C1=O                 -1.82
1  C=CC(=O)N(c1ccc(C(C)(C)C)cc1)C(C(=O)NCCCSC)c1cccnc1 (stereo not drawn)                  50.3
2            Cc1cc(Br)cc2c1N(CCBr)C(=O)C2=O                 -3.94

###

target: SARS-CoV-2 Main Protease (SARS-CoV-2) (UniProt P0DTD1); settings: 50.0 µM
Listed here are compounds together with their documented inhibition.
Property label: inhibition (%)

                                   compound  unit_label  reported_measurement
0  Cc1cc(C)c(C)c(S(=O)(=O)N2CCN(C(=O)c3cc[nH]c(=O)c3)CC2)c1C           %                     0
1         Cn1cncc1CNC(=O)Nc1cccc(OCC(F)F)n1           %                  28.4
2  C=CC(=O)N1CCCC(N(CC2CCCCC2)C2CCC(O)CC2)C1 (configuration not stated)           %                     0
3  O=C1CC[C@H](C(=O)Nc2cccc(Br)c2)N1 (stereo in doubt)           %                     0
4  CC(C)(C)NC(=O)C(c1cccnc1)N(C(=O)c1ccco1)c1ccc(C(C)(C)C)cc1 (configuration not stated)           %                  23.9
5  C=CC(=O)N(c1ccc(C(C)(C)C)cc1)C(C(=O)NCc1cccnc1)c1cccnc1 (configuration not stated)           %                  61.3
6             O=C(CC(=O)Nc1ccncc1)Nc1ccccc1           %                     0

###

Here the recorded inhibition is given for each entry.
biological target: SARS-CoV-2 Main Protease (SARS-CoV-2) (UniProt P0DTD1); details: 50.0 µM
Property label: inhibition (%)

                                   molecule                        measurement_target  property_label  reported_measurement
0  O=C(c1ccccc1)N1CCN(C(=O)c2nn(-c3ccccc3C(F)(F)F)cc2O)CC1  SARS-CoV-2 Main Protease (SARS-CoV-2) (UniProt P0DTD1)      inhibition                 -1.44
1             Cc1cc(C)cc(NC(=O)Cn2cncc2C)c1  SARS-CoV-2 Main Protease (SARS-CoV-2) (UniProt P0DTD1)      inhibition                  2.72
2  O=C(CCn1ccnn1)NC(CN1CCOCC1)c1ccccc1 (centres undefined)  SARS-CoV-2 Main Protease (SARS-CoV-2) (UniProt P0DTD1)      inhibition                  5.19
3  C=CC(=O)N1CCCC(c2nc3ccccc3s2)C1 (centres undefined)  SARS-CoV-2 Main Protease (SARS-CoV-2) (UniProt P0DTD1)      inhibition                  14.5

###

Below are pIC50 values measured for SARS-CoV-2 Main Protease (SARS-CoV-2).
pIC50: −log10 of the molar value.
Property label: pIC50

>>> df
                                    compound  reported_measurement
 0      Cc1ccncc1NC(=O)Cc1cc(Cl)cc(C2COC2)c1                  4.24
 1       O=C(Cc1cccc(Cl)c1)Nc1cncc2nc[nH]c12                  5.10
 2  O=C(CCl)Nc1nc2c(S(=O)(=O)NCCc3ccccc3)cccc2s1                  5.07
 3  CC(C)Cn1cc(NC(=O)NCCCN2CCC(C)CC2)c2ccccc2c1=O                  4.01
 4  COC(=O)c1c(NCCCc2ccccc2)c2cc(F)ccc2[nH]c1=O                  4.16
 5         Cc1ccncc1NC(=O)Cn1ccc2ccc(Cl)cc21                  4.70
 6  Cc1ccncc1N1CCC(c2cccc(Cl)c2)C1=O (centres undefined)                  4.89
 7  O=C(Cn1nnc2ccccc21)N(Cc1ccsc1)c1ccc(N2CCOCC2)cc1                  4.67
 8  CS(=O)(=O)N1CCc2ccc(CN3CCN(C(=O)CCl)CC3)cc2C1                  4.42
 9  COc1ccc(C2CC(c3ccccc3)=NN2C(=O)CCl)cc1OC (centres undefined)                  6.38
10                     O=C1Nc2ccc(Br)cc2C1=O                  4.52
11  O=C1N(Cc2cccc(Cl)c2)CCN1c1nccc2n[nH]cc12                  5.54
12   Cc1cccc(NC(=O)CN2C(=O)C(=O)c3ccccc32)c1                  4.37
13  Cc1ccncc1NC(=O)C(C)c1cccc(Cl)c1 (centres undefined)                  4.89
14     CCOc1ccccc1CN1C(=O)C(=O)c2cc(Br)ccc21                  4.91
15         O=C(CCl)N1CCN(Cc2cccc3ccccc23)CC1                  6.05
16    CC(=O)NCc1cc(Cl)cc(CC(=O)Nc2cnccc2C)c1                  4.26
17    O=C(Cc1cccc(Cl)c1)Nc1[nH]nc2cccc(F)c12                  4.09
18  CC(NC(=O)CCl)c1cc(Cl)cc(-c2ccc(S(N)(=O)=O)cc2)c1 (centres undefined)                  6.28
